This collection of values is drawn from patent US20190284129A1.

Study system: human PPARalpha receptor (Homo sapiens)
Measurement description: cellular GAL4 reporter gene assay (M1H) in HEK293 cells, PPARalpha
Conditions: agonist mode, HEK293, GAL4 reporter
Reported metric: EC50 (µM)
Your answer is read as µM, so omit the unit and give the number.

Record CCCCC/C=C\C/C=C\C/C=C\C/C=C\CCC(CC)C(=O)O (centres unmarked) has human PPARalpha receptor (Homo sapiens) EC50 equal to 0.35

----------
Study system: human PPARalpha receptor (Homo sapiens, UniProt Q07869)
Construct: expressed in transfected cells; host or cells: HEK293 (DSMZ ACC 305)
Sequence (Q07869 239-466 limits assumed): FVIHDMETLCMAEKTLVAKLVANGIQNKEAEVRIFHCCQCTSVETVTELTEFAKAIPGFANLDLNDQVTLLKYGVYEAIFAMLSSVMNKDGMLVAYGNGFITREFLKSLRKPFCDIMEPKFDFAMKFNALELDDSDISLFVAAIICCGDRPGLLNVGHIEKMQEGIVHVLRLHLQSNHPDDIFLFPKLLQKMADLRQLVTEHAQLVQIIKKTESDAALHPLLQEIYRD
Measurement description: cellular GAL4 reporter gene assay (M1H) in HEK293 cells, PPARalpha
Format: cell-based
Conditions: agonist mode, HEK293
Reported metric: Efficacy vs. GW7647 (%)

[A] CCCCC/C=C\C/C=C\C/C=C\C/C=C\CCCC(=O)O
[B] CCCCCCCCCCCCCCSC(C)C(=O)O (stereo not shown)
Task item: Task for the reader: decide whether A or B has the larger Efficacy vs. GW7647. I would appreciate it if you answered with the label of your choice.
Reply: B

[1] CCCCC/C=C\C/C=C\C/C=C\C/C=C\CCC(CC)C(=O)O (stereo not shown)
[2] CC/C=C\C/C=C\C/C=C\C/C=C\C/C=C\C/C=C\CC(CC)C(=O)O (stereo not shown)
Task item: Of 1 and 2 , which one carries the higher reported Efficacy vs. GW7647? I would appreciate it if you answered with the label of your choice.
Reply: 1
